Field: IC50. Provide a value for each of the sequences that follow.
system: HLA-A3.2 (A*0301) (Homo sapiens)
assayComment: biochemical
Format: binding
No end group written: not given here.
Report the figure in µM without appending any unit label.

IC50 for ILYQSNPYPK [Peptide 9017.0198] ? 0.0088

Quick one: IC50 for KFYSKISEYR [Peptide 78.0081] ? 1.68

Quick check: IC50 of LQGKLYYKFK [Peptide 88.0184] ? 0.724

Look at this sequence and give its reported IC50. NVAPIVHLK [Peptide 1589.21] 6.38

Give the measured IC50 of EQNEALELK [Peptide 1556.69] . 0.166

Consider the sequence GVIVMMLIR [Peptide 88.0376] and give its measured IC50. 2.38

Recorded IC50 for SFMELVRPFK [Peptide 88.0163] , please? 2.02

Requested field: IC50. Item: VIDSPAGQA [Peptide 78.0316] 13

So what does the record say about IC50 for GQGVSIEWRK [Peptide 9017.0219] ? 15

Given the entry SIVGWPAVR [Peptide 9017.0058] , report its measured IC50. 1.09

Quick check: IC50 of KSLFGMSLMK [Peptide 1587.13] ? 0.0044

Please give the measured IC50 for this sequence: VVPAYNISK [Peptide 88.0397] 0.069

Which IC50 is listed for MALESILRK [Peptide 9012.0214] ? 0.216

Record request: IC50 value, item SFTDLVRNFK [Peptide 88.0143] 1.59

So what's the measured IC50 for this one? LVYQDTILWK [Peptide 9012.0221] 0.199

I have this sequence here, ITVYYGVPVWR [Peptide 1525.06] , and I need its recorded IC50. 0.831

Which IC50 value is on record for FLSALKLFLK [Peptide 1587.38] ? 0.715

Recorded IC50 for TTTYSPALNK [Peptide 1556.41] , please? 0.102

Which IC50 is reported for this sequence? FLGAFKKFLK [Peptide 88.0169] 0.0033

// returns reported IC50 for input VLYGPANTGK [Peptide 88.0180] 0.0098

Query: IC50; subject: LTTNIHPAK [Peptide 88.0347] 0.044

Look at this sequence and give its reported IC50. ETLNASPYK [Peptide 1589.39] 0.163

Quick check: IC50 of SFFQNLQVIR [Peptide 9012.0232] ? 3.8

// query IC50 value for entry TFWNPPTTAR [Peptide 1556.02] 18.1

Could you tell me which IC50 is on file for RQMSMGQWIK [Peptide 1587.35] ? 0.053

Item TSNECTNNK [Peptide 1589.31] has what recorded IC50? 4.79

----------
system: HLA-A1 (A*0101) (Homo sapiens, UniProt P04439, A114D/A174V/A182V/D101N/D185E/E176A/E190D/L180R/Q94H/R68K/S129P/T187R/V100A/V91M/W191G)
assayComment: biochemical
Assay type: binding
No end group written: not given here.
Param label: returns rule met when IC50 < 0.01 µM, returns rule not met otherwise, including exact equality.

For PTDDPSPLQRY [Peptide 9012.0186] , is the recorded IC50 below the cut-off of 0.01 µM? rule not met

In the record for FTQENYLEY [Peptide 9012.0137] , is IC50 less than 0.01 µM? rule not met

Here's an entry: RTDSVILNVLY [Peptide 9012.0162] . Is its IC50 below 0.01 µM? rule not met

Confirm or reject: IC50 of VTDDSEIAY [Peptide 1593.13] lies strictly below 0.01 µM rule not met

Dear colleague, could you confirm whether IC50 of LMWKFDSSL [Peptide 1605.16] falls below 0.01 µM? Thanks. rule not met

Does SFDPIPIHY [Peptide 9015.0002] have IC50 strictly under 0.01 µM? rule not met

For CQDKILEHY [Peptide 1580.23] , is the recorded IC50 below the cut-off of 0.01 µM? rule not met

Given ISDYRHYCY [Peptide 1571.26] , is recorded IC50 strictly lower than 0.01 µM? rule met

I wonder whether GYADQLIHLY [Peptide 9018.0025] has IC50 below 0.01 µM. Can you tell? rule not met

# TODO verify IC50 < 0.01 µM strictly for this sequence: VSEFRWYRY [Peptide 1549.02] rule not met

Is 0.01 µM strictly greater than the sequence's reported IC50? sequence: KYCWNLLQY [Peptide 1595.08] rule not met

Please let me know if LTDDSDIAYY [Peptide 1580.12] shows IC50 below 0.01 µM. rule met

Could you please tell me whether IC50 recorded for RFHNIMGRW [Peptide 78.0381] is less than 0.01 µM? rule not met

Is it true that IC50 reported for ETDEEITGYLY [Peptide 9012.0180] is less than 0.01 µM? rule met

----------
system: DRB1*1302 (Homo sapiens, UniProt P01903+P01911, A100E/A169T/K41T/L162R/M171V/P40S/Q125H/Q178H/Q39Y/Q99D/R42S/S66N/T262R/V115G/W38E/Y61H)
Sequence (P01903 26-254 limits assumed, other chains not shown): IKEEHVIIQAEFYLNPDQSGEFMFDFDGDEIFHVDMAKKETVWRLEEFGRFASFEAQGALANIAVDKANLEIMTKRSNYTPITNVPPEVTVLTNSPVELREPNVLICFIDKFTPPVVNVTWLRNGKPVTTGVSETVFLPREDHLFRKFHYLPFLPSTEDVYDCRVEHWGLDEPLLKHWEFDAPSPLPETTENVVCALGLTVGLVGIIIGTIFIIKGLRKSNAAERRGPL
assayComment: biochemical
Format: binding
No end group written: not given here.
Grouping key: IC50. Bins: bin 1 (below 200 nM), bin 2 (200 nM to below 2000 nM), bin 3 (2000 nM or more)

Please indicate the class for CIHSTATDLRTLQQM [Peptide 1543.45] based on its IC50. bin 3

Each sequence maps to one class by IC50. Which class for HALFTAQEAKQHRDA [Peptide 89.0001] ? bin 3

Please report the category associated with IHFLKGCIISYVNSK [Peptide 89.0147] , nothing else. bin 3

Which class holds IIHLKGDPNSLKCLR [Peptide 90.0228] ? bin 1

Where would EVHMENESIYCPDSV [Peptide 90.0238] land among the classes by reported IC50? bin 3

Tag the class for PDGQAEQATSNYYIV [Peptide 1543.43] bin 3

Form: Item = EVHVGGQVIVCPTSI [Peptide 89.0184] ; Class = ? bin 3

Class (by measured IC50) for DNDIVDDSEIAYKYA [Peptide 90.0037] bin 3

Please classify: QEQMLIQPPKIRSPA [Peptide 89.0124] bin 3

Please let me know in which category the item YFKLFLQGTPKHNCL [Peptide 89.0133] belongs. bin 1

Tag the class for LIRLENAILFTAREH [Peptide 90.0002] bin 1

For LSQRLNVCQDKILEH [Peptide 1601.21] , which IC50 bin applies? bin 3

In plain terms, what class is GHQVVPPMAVSKAKA [Peptide 90.0011] ? bin 3

Bin? LIRMECAIMYTARQM [Peptide 90.0022] bin 2

Would you mind sorting CMLIQPPKLRSTAAA [Peptide 89.0047] into the appropriate category? bin 3

Note: place this sequence into its band. Item: QRFHNIRGRWTGRCM [Peptide 1543.27] bin 3

Using the reported IC50, which band applies to ENSIQADTEAARALF [Peptide 90.0078] ? bin 3

Which bin, given its IC50, does SQLLNIPETHMVIEP [Peptide 89.0102] occupy? bin 3

Category of GKSYFGMSLIHFLKG [Peptide 89.0146] : bin 3

Band for the recorded IC50 of PTGCLKKHGYTVEVQ [Peptide 1601.23] ? bin 1

Could you tell me which band SADDLRAFQQLFLNT [Peptide 1543.07] belongs to? bin 3

Consider IAYYYAQLADSNSNA [Peptide 89.0072] . To which IC50 class does it belong? bin 3

# bin label for GEIYIIEEDTCTMVT [Peptide 90.0202] bin 2

Assign a bin to AYGISFMELVRPFKS [Peptide 89.0060] bin 3

Place this sequence in its band: EDEIDTDLDGFIDDS [Peptide 90.0126] bin 1

Dear colleague, I would appreciate it if you could identify the bin for EIYIIEETTCTLVAG [Peptide 90.0251] and reply at your convenience. bin 2

Class for SNLLSIPETCMVIEP [Peptide 89.0067] ? bin 2

Bin this entry: LNVLKTSNAKAAMLA [Peptide 89.0003] bin 1

Field: class (IC50) — entry: LETIYNSQYSNEKWT [Peptide 1601.03] bin 3

Which class holds LKRFLQGIPKKNCIL [Peptide 89.0016] ? bin 3

// return the class label for WKLIRMECALLYTAK [Peptide 90.0199] bin 1

Just checking, what class would you give LKTVKIPNTVQVIQG [Peptide 90.0017] here? bin 1

GET /class?item= IYIIEEDTCTMVTGK [Peptide 90.0204] bin 2

Record DHDITDDSDIAYKYA [Peptide 90.0117] — which class? bin 2

Into which bin does this sequence go? RGIIILLLIRFRCSK [Peptide 89.0063] bin 2

Which of the defined bands does the recorded IC50 of VEFMSFLTALKRFLQ [Peptide 89.0015] sit within? bin 3

Note: place this sequence into its band. Item: VTVFTFPHAFPFDKN [Peptide 89.0092] bin 3

In plain terms, what class is KERHVNANKRFHNIM [Peptide 1543.59] ? bin 1

Assign a category based on measured IC50 for LKEFLKGTPKKNCIL [Peptide 89.0086] and give only the class name. bin 3

Class for LKTIIKPHCMYYHMQ [Peptide 89.0119] ? bin 1

Where would TGWFEVEAVIERRTG [Peptide 90.0075] land among the classes by reported IC50? bin 3

Given NCILLYGAANTGKSL [Peptide 89.0017] , name the class its IC50 places it in. bin 3

Into which bin does this sequence go? TYGVSFMELVRPFKS [Peptide 89.0095] bin 2

Which bin should I file QERPRKLPQLCTELQ [Peptide 1543.22] under? bin 3

Just checking, what class would you give TRPRTLHELCEVLEE [Peptide 1543.42] here? bin 3

Which band does DWCIIGMGVTPSVAE [Peptide 89.0096] fall in? bin 3

Classify this sequence: RQHLANHPAATHTKA [Peptide 89.0155] bin 2

Hi there! Could you help me figure out the category for ITFLGALKSFLKGTP [Peptide 89.0034] please? bin 3

Which class is correct for the following sequence? TPEWIDRLTVLQHSF [Peptide 89.0069] bin 3

// return the class label for WQLIRLENAILFTAR [Peptide 90.0211] bin 1

Form: Item = KIGMIDDVTPISWTY [Peptide 90.0087] ; Class = ? bin 1

Textbook exercise: identify the category of the sequence given here, EYVLDLYPEPTDLYC [Peptide 1543.12] , according to its measured value. bin 3
